Cited source for all entries: a melting point compilation (Tetko et al.; mined from patent text by program, amines drawn as free bases though some values may be those of a salt)

Catalogue of compounds with associated melting point
value type: melting point

COCOC1CCC2(C)C(=CCC3C2CCC2(C)C(CO)CCC32)C1 (centres undefined)
102 to 105 °C
COC(=O)C(=O)O[C@H]1C[C@@H](C(=O)OC)[C@]2(C)CC[C@H]3C(=O)O[C@H](c4ccoc4)C[C@]3(C)[C@H]2C1=O
241 to 244 °C
Cc1ccc(S(=O)(=O)N=[N+]=[N-])cc1
79 to 82.5 °C
COc1ccc(C(=O)CNc2ccccc2)cc1
105 to 106 °C
CCOC(=O)c1c(Cl)nc2ccccc2c1-c1ccc(F)cc1
113 to 114 °C
Cc1ccc(S(=O)(=O)OCC2Cc3cccc(-c4ccc(F)cc4F)c3O2)cc1 (centres undefined)
116 to 118 °C
FC(F)c1nc2ccccc2n1-c1nc(NCc2ccccc2)nc(N2CCOCC2)n1
185 to 188 °C
O=C(O)c1ccc(-c2nc3ccccc3s2)nc1
> 300 °C
CCCCc1nn(-c2cc(NC(=O)CC)ccc2Cl)c(=O)n1Cc1ccc(-c2ccccc2S(=O)(=O)NC(=O)OC(C)(C)C)cc1
133 to 135 °C
CCCN(CCC)S(=O)(=O)c1cc(-c2csc(=Nc3ccc(C)cc3C)n2C)ccc1Cl
139 to 141 °C
COc1cc(C)nc(C)c1C(=O)OC(C)c1nc2c(c(=O)n(C)c(=O)n2C)n1C (centres undefined)
135 to 138 °C
N#Cc1c(N2CCNCC2)c2cccnc2n(Cc2ccccc2)c1=O
211 °C
CCc1nc2c(o1)C(=O)C=CC2=O
99 °C
Nc1nnc(-c2ccc3occ(-c4cc(F)ccc4F)c3c2)o1
245 to 246 °C
CN(CCc1ccccc1)C(=O)C(C)(Cc1c[nH]c2ccccc12)NC(=O)OC1C2CC3CC(C2)CC1C3 (centres undefined)
90 to 95 °C
O=C1CC(N2C=Nc3cc(Cl)cc(Cl)c3C2)C(=O)N1 (centres undefined)
215 to 217 °C
COC(=O)c1cnn2c(O)cc(C(F)(F)F)nc12
216 to 217 °C
Cc1c(Cc2cccc(C(F)(F)F)c2)sc2c(-c3cccc(C(=O)O)c3)cccc12
172 to 173 °C
CN(C(=O)c1ccc(-n2cc3ccccc3n2)cc1)[C@@H]1CCN(C(=O)OC(C)(C)C)C1
133 to 134 °C
